STUDY SYSTEM: SARS-CoV-2 S1 (antigen of the Carterra SPR kinetics) (SARS-CoV-2, UniProt P0DTC2 16-685)
ASSAY PROTOCOL: Carterra SPR

{"BINDER": "1-10 (antibody, V domains shown, also called variant 1-10) VH: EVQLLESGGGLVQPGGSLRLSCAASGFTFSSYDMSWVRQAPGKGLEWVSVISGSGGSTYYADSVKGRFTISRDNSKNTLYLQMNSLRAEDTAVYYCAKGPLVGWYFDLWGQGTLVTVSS VL: QSALTQPASVSGSPGQSITISCTGTSSNVGSYNLVSWYQQHPGKAPKLMIYEGTKRPSGVSNRFSGSKSGNTASLTISGLQAEDEADYYCCSYAGSSSFVVFGGGTKLTVL", "kon / M⁻¹ s⁻¹": "1.04e+06"}
{"BINDER": "1-2 (antibody, V domains shown, also called variant 1-2) VH: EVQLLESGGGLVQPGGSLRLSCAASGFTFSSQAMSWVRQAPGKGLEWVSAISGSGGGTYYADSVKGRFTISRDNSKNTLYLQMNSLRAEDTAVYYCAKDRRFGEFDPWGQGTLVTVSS VL: QSALTQPASVSGSPGQSITISCTGTSSGVGSYNLVSWYQQHPGKAPKLMIYEGIKRPSGVSNRFSGSKSGNTASLTISGLQAEDEADYYCCSYAGSSSFVVFGGGTKLTVL", "kon / M⁻¹ s⁻¹": 1580}
{"BINDER": "1-31 (antibody, V domains shown, also called variant 1-31) VH: EVQLLESGGGLVQPGGSLRLSCAASGFTFSSYAMNWVRQAPGKGLEWVSAISGSGGSTFYADSVKGRFTISRDNSKNTLYLQMNSLRAEDTAVYYCTRPPYGDYGDYWGQGTLVTVSS VL: QSALTQPASVSGSPGQSITISCTGTSSDVGKYNLVSWYQQHPGKAPKLMIYEGSQRPSGVSNRFSGSKSGNTASLTISGLQAEDEADYYCCSYAGSRTPVVFGGGTKLTVL", "kon / M⁻¹ s⁻¹": 20500}
{"BINDER": "1-17 (antibody, V domains shown, also called variant 1-17) VH: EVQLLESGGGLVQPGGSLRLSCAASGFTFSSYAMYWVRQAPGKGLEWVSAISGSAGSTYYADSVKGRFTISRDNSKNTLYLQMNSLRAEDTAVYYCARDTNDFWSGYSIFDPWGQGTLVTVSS VL: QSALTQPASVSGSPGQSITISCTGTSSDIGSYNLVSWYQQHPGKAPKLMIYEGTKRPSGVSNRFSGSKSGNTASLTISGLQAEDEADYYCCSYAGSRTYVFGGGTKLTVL", "kon / M⁻¹ s⁻¹": "3.92e+08"}
{"BINDER": "1-47 (antibody, V domains shown, also called variant 1-47) VH: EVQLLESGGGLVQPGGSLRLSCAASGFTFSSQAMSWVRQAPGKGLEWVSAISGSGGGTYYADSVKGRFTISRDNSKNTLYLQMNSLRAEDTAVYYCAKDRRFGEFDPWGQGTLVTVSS VL: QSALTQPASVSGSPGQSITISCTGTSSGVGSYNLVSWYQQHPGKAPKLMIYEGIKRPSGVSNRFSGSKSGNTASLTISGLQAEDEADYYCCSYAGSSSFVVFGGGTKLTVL", "kon / M⁻¹ s⁻¹": 6320}
